systemUnderTest: Retinoic acid receptor alpha (Homo sapiens)
protocolDetails: ATG_DR5_RAR_CIS: Attagene CIS-FACTORIAL HepG2 Assay for human Retinoic Acid Receptor Alpha (RARE), DR5 submotif (AID 2282934)
runParameters: HepG2 Attagene cis-factorial RARE DR5 reporter, mRNA; actives raise or lower the signal
Procedure: ATG_CIS is a cell-based, multiplexed-readout assay that uses HepG2, a human liver cell line, with measurements taken at 24 hours after chemical dosing in a 24-well plate.ATG_DR5_RAR_CIS is one of 52 assay component(s) measured or calculated from the ATG_CIS assay. […] This assay endpoint, ATG_DR5_CIS, was analyzed with bidirectional fitting relative to DMSO as the negative control and baseline of activity. […]
Active and inactive are the calls of the source. The calls were made as follows: active = hit-call score of the fitted dose curve at least 0.9, where 1 is the maximum; inactive = score below 0.9.
Possible outcomes: active, inactive

• CCCCC(CC)COC(C)=O (centres undefined) = inactive
• CCC(C)=O = inactive
• C=C(C#N)C(=O)OCC = inactive
• O=C(O)c1ccc(O)cc1 = inactive
• COc1cc(C(C)C)ccc1C = inactive
• O=C(Nc1ccc2c(O)c(N=Nc3ccc(N=Nc4ccc(S(=O)(=O)O)cc4)cc3)c(S(=O)(=O)O)cc2c1)c1ccccc1 = inactive
• C1CCOC1 = inactive
• CC(C)C[C@H](NC(=O)OCC1c2ccccc2-c2ccccc21)C(=O)O = inactive
• CC(Oc1cc(Cl)ccc1Cl)C(=O)O (centres undefined) = inactive
• CC1(C)COCN1 = inactive
• CCCCCCOCCOCCO = inactive
• CSCCC=O = active
• CC(CN=Cc1ccccc1O)N=Cc1ccccc1O (centres undefined) = inactive
• COc1ccc(CCN2CCC(Nc3nc4ccccc4n3Cc3ccc(F)cc3)CC2)cc1 = inactive
• CN(C)c1cccc(O)c1 = inactive
• NC1CCCCC1N (centres undefined) = inactive
• CCCCCCCC/C=C\CCCCCCCC(=O)OCC = inactive
• CCc1ccc(O)cc1 = inactive
• CC(C)(N=C=O)c1cccc(C(C)(C)N=C=O)c1 = inactive
• CCCCN(CCCC)C(=O)N(CCCC)CCCC = inactive
• CCCC(=O)OCCc1ccccc1 = inactive
• O=C(O)c1cc(C(=O)O)cc([N+](=O)[O-])c1 = inactive
• C=Cc1ccncc1 = active
• C[Si](C)(C)O[Si](C)(C)C = inactive
• CC[N+](C)(CC)CC = inactive
• Clc1cc(Cl)c(-c2c(Cl)c(Cl)cc(Cl)c2Cl)cc1Cl = inactive
• C=C(C)C(=O)OCCOCCOCCOCCOC(=O)C(=C)C = inactive
• Cc1c(Cl)cccc1[N+](=O)[O-] = inactive
• CC1(C)O[C@@H]2C[C@H]3[C@@H]4CCC5=CC(=O)C=C[C@]5(C)[C@@]4(F)[C@@H](O)C[C@]3(C)[C@]2(C(=O)CO)O1 = inactive
• CCCOCCO = inactive
• CC1(C)C2=CCCC(C)(C)[C@]23CC[C@H]1C3 = inactive
• CC1CC(O)CC(C)(C)C1 (centres undefined) = inactive
• CC(C)NCC(O)COc1ccc(CC(N)=O)cc1 (centres undefined) = inactive
• ClC(c1ccccc1)(c1ccccc1)c1ccccc1 = inactive

----------
protocolDetails: ATG_MRE_CIS: Attagene CIS-FACTORIAL HepG2 Assay for human Metal Responsive Element (MRE) (AID 2282954)
runParameters: HepG2 MRE cis-reporter transcription, Attagene multiplex; actives raise or lower the signal
Activity calls are given as the source filed them. Rule for the calls: active = hit-call score of the fitted dose curve at least 0.9, where 1 is the maximum; inactive = score below 0.9.
measurementType: AC50

- CC(C)OCCO: inactive
- CCc1ncc(C)[nH]1: inactive
- CC(C)(C)CC(C)(C)c1ccc(OCCOCC[N+](C)(C)Cc2ccccc2)cc1: 8.35 µM (active)
- CCCCCCCCCC(C)C=O (stereo not drawn): inactive
- CCCC(=O)OC(C)(C)Cc1ccccc1: inactive
- CC(CN=Cc1ccccc1O)N=Cc1ccccc1O (stereo not drawn): 26.8 µM (active)
- CCCCCc1ccco1: inactive
- CC(=O)O[C@@H]1CC2CCC1(C)C2(C)C (stereo partly drawn): inactive
- C=C(C)[C@@H]1CC=C(C)C(=O)C1: inactive
- O=C(O)CNc1ccccc1: inactive
- O=C(Nc1ccc2c(c1)Cc1ccccc1-2)C(F)(F)F: inactive
- ON=C1CCCCC1: inactive
- COc1cccc(OC)c1O: inactive
- CCCCCCCCCCCCN1CCCCCC1=O: inactive
- N#Cc1cscn1: inactive
- OCCCCC(O)CO (stereo not drawn): inactive
- CCCC(=O)c1ccccc1: inactive
- Cc1ccc2c(c1)C(=O)OC2=O: inactive

----------
Read-out: E-selectin (Homo sapiens) (UniProt P16581)
Sequence (P16581 whole entry, looked up): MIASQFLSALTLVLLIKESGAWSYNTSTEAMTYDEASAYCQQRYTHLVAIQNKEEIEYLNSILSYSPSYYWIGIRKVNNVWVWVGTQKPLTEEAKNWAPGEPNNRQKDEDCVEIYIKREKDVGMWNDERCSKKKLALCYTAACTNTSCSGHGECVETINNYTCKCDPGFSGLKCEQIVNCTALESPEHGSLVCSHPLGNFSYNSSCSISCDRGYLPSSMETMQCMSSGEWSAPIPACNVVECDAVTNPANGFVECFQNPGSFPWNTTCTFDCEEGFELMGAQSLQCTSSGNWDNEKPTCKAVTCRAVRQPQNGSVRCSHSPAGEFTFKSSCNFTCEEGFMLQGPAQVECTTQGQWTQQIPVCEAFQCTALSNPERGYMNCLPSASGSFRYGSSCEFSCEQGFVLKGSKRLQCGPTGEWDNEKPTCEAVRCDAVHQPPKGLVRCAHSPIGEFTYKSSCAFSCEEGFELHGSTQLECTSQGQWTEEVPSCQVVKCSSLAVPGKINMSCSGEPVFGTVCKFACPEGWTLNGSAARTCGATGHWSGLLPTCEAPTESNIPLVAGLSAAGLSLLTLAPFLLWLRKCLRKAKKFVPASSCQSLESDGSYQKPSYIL
protocolDetails: BSK_LPS_Eselectin: BioMAP Diversity Plus: LPS Assay for Eselectin Biomarker Activity (AID 2283077)
runParameters: primary human HUVEC with PBMC; actives raise or lower the signal
Activity calls are given as the source filed them. Rule for the calls: active = hit-call score of the fitted dose curve at least 0.9, where 1 is the maximum; inactive = score below 0.9.
measurementType: AC50

• CCCCCC(C=O)=Cc1ccccc1 = 31.1 µM (active)
• c1ccc(Oc2ccccc2)cc1 = inactive
• O=C(Nc1ccc2c(O)c(N=Nc3ccc(N=Nc4ccc(S(=O)(=O)O)cc4)cc3)c(S(=O)(=O)O)cc2c1)c1ccccc1 = inactive
• CC1(C)C2=CCCC(C)(C)[C@]23CC[C@H]1C3 = inactive
• CC(=O)Nc1ccc(C(=O)CCl)cc1 = 4.61 µM (active)

----------
protocolDetails: ATG_CMV_CIS: Attagene CIS-FACTORIAL HepG2 Assay for human CMV (Internal Marker) (AID 2282928);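 also: endpoint acts as a background internal control marker rather than a target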
runParameters: HepG2 CMV promoter reporter, transcription factor profiling; actives raise or lower the signal
Active and inactive are the calls of the source. The calls were made as follows: active = hit-call score of the fitted dose curve at least 0.9, where 1 is the maximum; inactive = score below 0.9.
Possible outcomes: label 1 (active), label 0 (inactive)

- CCCCCC(=O)CC: label 0
- COC(CC(C)CCCC(C)(C)O)OC (stereo unspecified): label 0
- CCCC1O[C@@H]2C[C@H]3[C@@H]4CCC5=CC(=O)C=C[C@]5(C)[C@H]4[C@@H](O)C[C@]3(C)[C@]2(C(=O)CO)O1 (stereo partly specified): label 0
- CCC(C)=O: label 0
- CCCCCCOC(=O)C(C)C: label 0
- O=[N+]([O-])c1ccc(O)cc1C(F)(F)F: label 1
- C=Cc1ccncc1: label 1
- c1ccc(CN(Cc2ccccc2)Cc2ccccc2)cc1: label 0
- CC(C)Nc1nc(N)nc(Cl)n1: label 0
- CCCCCCCCCC(=O)OC: label 0
- CCCCOC(=O)CCCCCCCC(=O)OCCCC: label 0
- CC1CCC(C(C)C)C(O)C1 (stereo unspecified): label 0
- CCCCOCC: label 0
- COc1cc(C(C)C)ccc1C: label 0
- C=C(C)CNCC: label 0
- CC(C)(C)OC(=O)c1ccc(O)cc1: label 0
- OCCc1ccccc1: label 0
- O=C1OC(=O)c2c(Br)c(Br)c(Br)c(Br)c21: label 0
- Cc1ccc(C)o1: label 0
- COc1ccc(CCC(C)=O)cc1: label 0
- O=C1CCCC=CCCCCCCCCCC1: label 1
- C=Cc1ccc(C)cc1: label 0
- BrCc1cccc(Oc2ccccc2)c1: label 0
- CCC1(C)NC(=O)NC1=O (stereo unspecified): label 0
- CCOC(=O)CC(C)O (stereo unspecified): label 0
- Nc1ccc2cc(S(=O)(=O)O)cc(O)c2c1N=Nc1ccccc1C(F)(F)F: label 0

----------
systemUnderTest: Transcription factor Sp1 (Homo sapiens) (UniProt P08047)
Sequence (P08047 whole entry, looked up): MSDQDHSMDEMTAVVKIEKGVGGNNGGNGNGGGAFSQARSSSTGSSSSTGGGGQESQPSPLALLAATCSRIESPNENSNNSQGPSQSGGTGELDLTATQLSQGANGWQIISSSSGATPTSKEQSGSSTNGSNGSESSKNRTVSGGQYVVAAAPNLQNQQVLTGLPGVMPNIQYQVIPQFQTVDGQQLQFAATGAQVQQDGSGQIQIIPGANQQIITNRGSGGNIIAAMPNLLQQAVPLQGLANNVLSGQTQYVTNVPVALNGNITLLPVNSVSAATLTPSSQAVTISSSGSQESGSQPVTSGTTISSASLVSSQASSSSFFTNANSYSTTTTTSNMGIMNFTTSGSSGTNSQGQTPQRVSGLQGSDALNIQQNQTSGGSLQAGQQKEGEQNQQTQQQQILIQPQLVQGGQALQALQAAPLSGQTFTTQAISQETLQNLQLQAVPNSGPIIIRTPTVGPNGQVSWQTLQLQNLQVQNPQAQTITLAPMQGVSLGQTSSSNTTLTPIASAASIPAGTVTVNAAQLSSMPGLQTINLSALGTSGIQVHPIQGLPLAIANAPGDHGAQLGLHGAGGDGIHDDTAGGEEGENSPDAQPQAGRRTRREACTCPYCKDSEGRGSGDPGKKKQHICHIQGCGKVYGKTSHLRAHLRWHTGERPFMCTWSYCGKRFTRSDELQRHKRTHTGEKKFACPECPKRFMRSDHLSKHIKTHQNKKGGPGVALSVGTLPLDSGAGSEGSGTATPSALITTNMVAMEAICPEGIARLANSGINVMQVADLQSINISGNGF
protocolDetails: ATG_Sp1_CIS: Attagene CIS-FACTORIAL HepG2 Assay for human Specificity Protein 1 (Sp1) (AID 2282961)
runParameters: HepG2 Sp1 cis-reporter transcription, actives raise or lower the signal
The source made the active and inactive calls. How the source made its calls: active means hit-call score of the fitted dose curve at least 0.9, where 1 is the maximum; inactive means score below 0.9.
measurementType: outcome

- CN(C)CCOc1ccc(/C(=C(/CCCl)c2ccccc2)c2ccccc2)cc1: inactive
- CCCCCCCCSCCO: inactive
- CCCC(=O)C(CC)Sc1ccoc1C (centres undefined): inactive
- CCOC(=O)C(C#N)=C(c1ccccc1)c1ccccc1: inactive
- CC(C)(C)C1=CC(=O)C(C(C)(C)C)=CC1=O: inactive
- CS(=O)(=O)c1ccc(C2=C(c3ccccc3)C(=O)OC2)cc1: inactive
- CC1(C)O[C@@H]2[C@@H](CO[C@@]3(COS(N)(=O)=O)OC(C)(C)O[C@@H]23)O1: inactive
- C=Cc1ccc(C(C)(C)C)cc1: inactive
- Cc1occc(=O)c1OC(=O)C(C)C: inactive

----------
Read-out: E-selectin (Homo sapiens)
protocolDetails: BSK_LPS_Eselectin: BioMAP Diversity Plus: LPS Assay for Eselectin Biomarker Activity (AID 2283077)
runParameters: primary human HUVEC with PBMC; actives raise or lower the signal
Activity calls are given as the source filed them. How the source made its calls: active means hit-call score of the fitted dose curve at least 0.9, where 1 is the maximum; inactive means score below 0.9.
Possible outcomes: active, inactive

- CN(C)C(=O)Nc1ccc(Oc2ccc(Cl)cc2)cc1: inactive
- CCCCOC(=O)CCCCCCCC(=O)OCCCC: inactive
- C=CC(C)(O)CCC=C(C)C (centres undefined): inactive
- C=C(C)C(=O)OCCOCCOCCOCCOC(=O)C(=C)C: inactive
- CC(=O)C1(C)CC2=C(CCCC2(C)C)CC1C (centres undefined): active
- Cc1cc(CCC(=O)OCCOCCOCCOC(=O)CCc2cc(C)c(O)c(C(C)(C)C)c2)cc(C(C)(C)C)c1O: inactive
- COc1ccc(CCN2CCC(Nc3nc4ccccc4n3Cc3ccc(F)cc3)CC2)cc1: inactive
- C1=CC2C3C=CC(C3)C2C1 (centres undefined): inactive
- O=CN1CCOCC1: inactive
